Origin of values: the supplement of paper PMC10126150

Test system: ATP;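 further: ATP exposure 15 min at 22 °C before imaging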
Test: switch fluorescence ratio, 500 uM ATP over buffer (Cy3 cluster intensity, sum of 5 cycles each) (fold (ratio)); higher = stronger signal-on switching upon ATP binding; sequences stand for … in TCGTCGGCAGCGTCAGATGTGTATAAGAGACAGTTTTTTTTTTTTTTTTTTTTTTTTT…TC
Conditions: aptamer strand: ATP DNA aptamer (quencher-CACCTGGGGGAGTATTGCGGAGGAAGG + anchor), 100 nM annealed; ATP concentration: 500 uM
Metric: switch fluorescence ratio

AGTTTGGCGG
0.923
ATCGTTCAAT
0.998
AGCTTCGTGG
0.971
ATCAGGCGGA
1
TTCACCCTTT
1.02
CGGGTTCTCG
0.978
AAGGGGAGTG
1.02
TGGGACTATT
1.01
CGCTTGGTAC
3.39
CGATGGTGAG
1
CGTGAGCTAA
1.41
TGCTGAAGGG
1.04
GGTAAATTTT
1
TTTTAGTACC
1.02
TTAGACGGTT
1
TTGTCTAGGT
1.01
ATACGAGTGC
1.01
CAAGAATGTA
0.973
TTTCAATCAT
0.983
TGGGTTAGAT
0.976
TGTGGGGATG
1.01
ACCAGTTATT
1.08
AAGCTTTATG
1
AATGTTGCGT
0.99
GGGGAGCCGT
1.03
AAAGGGGAGG
1.01
GGAGTGCCGT
1
ACGGTCCGGG
1.06
ATAGATTAGG
0.985
AGTTCTATTT
1.01
AAATTAATCC
1.04
GTTGTGTTAA
0.997
GGGAAGACGA
1.01
AAATGGGACC
1.01
GACGGGGGGA
1.03
CGCGAATATA
1
AAGTGTAGAG
1.03
TTTTATAGCA
1.02
TCATTGGTTA
1.02
CGTAGGGAAT
1.01
TTAGTCGTCG
1
AGTTTGTTTG
1.01
CGAAGTTATA
1.19
ACGGGGGGGG
1.02
TTCTACCAGC
1.01
CTAGTCTGAA
0.982
GACTAGTTAT
0.993
GATGTAGTAT
0.982
AGATTGCATG
1.03
TTATTTAAGG
1.01
CTTAAATCTG
0.974
TGGTTTGGGC
0.984
GAAATTATTA
0.992
CAGTGGGCGG
1.06
ATAGGGGACG
1.01
GAAGGGAGAG
0.993
TTCGGCGTTG
0.972
GCACGGGGAT
1.02
TCGGGTCCGC
1.06
AGGGTTGGAA
0.967
GGCACGGAGG
0.989
TCATTGTGAG
1
AGGACAAAGG
0.989
GGGGGACTAT
1.03
AGAGTTCATA
1.04
AAGAGGCTGG
0.99
GGGGGCCTTA
1.01
ACAAAACATG
1.16
TTGCGTAGTT
1.01
TATCGTATGT
0.991
GAGCAATTTT
2.31
TATGTGATGT
0.981
ATAACGAATG
1.01
GGGACAGAGG
0.988
CCCGGGGGT
1.13
AAACGGCATC
1.07
CTAGGATCGG
0.993
ATGAAGAGAT
0.989
TTCCAAAATG
1
AATAGGCTGG
1.03
GATACGTGTT
0.998
CATGAGACCG
1.03
CAAAGTTGCG
0.984
TGTTTATTTT
0.982
TCTGAGCGGA
1.14
CTTTTAGGGG
1.01

* * *

Readings of switch fluorescence ratio for the listed sequences
System: ATP;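 further: ATP exposure 15 min at 22 °C before imaging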
Assay: switch fluorescence ratio, 500 uM ATP over buffer (Cy3 cluster intensity, sum of 5 cycles each) (fold (ratio)); higher = stronger signal-on switching upon ATP binding; sequences stand for … in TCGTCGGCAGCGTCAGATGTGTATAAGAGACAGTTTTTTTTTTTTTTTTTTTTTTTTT…TC
Conditions: aptamer strand: ATP DNA aptamer (quencher-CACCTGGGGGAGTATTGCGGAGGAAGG + anchor), 100 nM annealed; ATP concentration: 500 uM
Metric: switch fluorescence ratio

GGAGTTTTGT
0.961
GGAATTACCG
1.03
AGCGATAGTT
1.1
GTAACGGGGC
0.982
ATGGGGGAGT
0.977
TTTTTAACAC
1.02
GATCTACAGC
1.02
TTAGGTGGCG
1.04
AGTGTACCCA
1.08
GGGAATCGTA
1.04
GTTAGATACG
1
TAGGCCATAG
1.01
TCAGAGGTTT
0.973
AAAGCGGTTA
1.01
ACGGTTTCTT
0.977
GGCGCAAGGA
2.41
GGAGGAAATG
0.949
GTGGGTGGGA
0.982
GGTTATACGA
1.03
TGGGAAAAAC
1.09

* * *

System: ATP;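 further: ATP exposure 15 min at 22 °C before imaging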
Assay: switch fluorescence ratio, 500 uM ATP over buffer (Cy3 cluster intensity, sum of 5 cycles each) (fold (ratio)); higher = stronger signal-on switching upon ATP binding; sequences stand for … in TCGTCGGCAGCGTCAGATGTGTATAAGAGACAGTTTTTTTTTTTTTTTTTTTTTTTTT…TC
Conditions: aptamer strand: ATP DNA aptamer (quencher-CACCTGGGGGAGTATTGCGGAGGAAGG + anchor), 100 nM annealed; ATP concentration: 500 uM
So basically: switch fluorescence ratio at 1 or higher? That is MET. Lower than 1? That is NOT MET.

GCGATGCCTC
MET
AAGGAAAGGC
NOT MET

* * *

System: ATP;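 further: ATP exposure 15 min at 22 °C before imaging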
Experiment: switch fluorescence ratio, 500 uM ATP over buffer (Cy3 cluster intensity, sum of 5 cycles each) (fold (ratio)); higher = stronger signal-on switching upon ATP binding; sequences stand for … in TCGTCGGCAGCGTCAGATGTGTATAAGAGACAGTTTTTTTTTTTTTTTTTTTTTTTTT…TC
Conditions: aptamer strand: ATP DNA aptamer (quencher-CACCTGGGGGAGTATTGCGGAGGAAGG + anchor), 100 nM annealed; ATP concentration: 500 uM
Readings of switch fluorescence ratio for the listed sequences
Metric: switch fluorescence ratio

ACCGTAAACG
0.999
ATTTTGTTAG
0.998
GTTGGTTGTA
0.987
ATGGTTGAGC
1.03
GGTTCAGAGA
0.973
TAGGGGCGCG
0.982
GCAAAGTCTG
0.984
ATGGTCGATG
0.965
TTCCACGCGG
1.27
TTCATATTTT
0.996
GGAAGGAGGA
0.973
TTCGTATTTC
1.06
CTGTAGCTGG
1.53
TTGAGGCCGG
1.04
GTAGGGAGGG
0.987
TGATTTACAA
1.05
ACTTATGGCT
1.05
GCCCAACTGT
1
GGGGTATCTT
1.04
AAAGAATTCG
0.974

* * *

System: ATP;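 further: ATP exposure 15 min at 22 °C before imaging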
Assay: switch fluorescence ratio, 500 uM ATP over buffer (Cy3 cluster intensity, sum of 5 cycles each) (fold (ratio)); higher = stronger signal-on switching upon ATP binding; sequences stand for … in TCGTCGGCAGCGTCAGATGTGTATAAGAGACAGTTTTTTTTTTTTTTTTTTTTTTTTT…TC
Details: aptamer strand: ATP DNA aptamer (quencher-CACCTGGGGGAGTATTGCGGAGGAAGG + anchor), 100 nM annealed; ATP concentration: 500 uM
Metric: switch fluorescence ratio

TGACTTATGG
0.983
TAGTAGATGT
1.01
CGAAGGTTGC
1.01
TGGGACTTAG
1.02
CCCAATGATC
1.52
TATTATTTTT
0.998
GTAGTGCCAG
1.02
ATGGGTTGGG
0.991
AAACTGGGGT
0.999
ATCAAGGGGG
0.992
ATGGGGGCTA
0.979
TTTGTTAAAA
1.04
GCTCCAGGGG
2.88
ATCCGGGCGC
1.08
TCTTGGTCAG
0.991
AAAGCTGTTT
1.02
GAATTTTCG
1.01
TCGGGGCGGG
1.01
AATTGTATAT
0.985
TTAAACTTTT
1.04
TTCCAGGTTC
1.04

* * *

Test system: ATP;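 further: ATP exposure 15 min at 22 °C before imaging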
Test: switch fluorescence ratio, 500 uM ATP over buffer (Cy3 cluster intensity, sum of 5 cycles each) (fold (ratio)); higher = stronger signal-on switching upon ATP binding; sequences stand for … in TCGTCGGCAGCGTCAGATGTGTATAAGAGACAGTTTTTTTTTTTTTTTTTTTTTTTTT…TC
Details: aptamer strand: ATP DNA aptamer (quencher-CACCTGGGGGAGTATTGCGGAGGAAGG + anchor), 100 nM annealed; ATP concentration: 500 uM
So basically: switch fluorescence ratio at 1 or higher? That is criterion met. Lower than 1? That is criterion not met.

GGTGTTTCGG
criterion not met
TTATCCAAAG
criterion not met
AGGTTGTTGG
criterion not met
GGTATAAATT
criterion not met
TGGAAAAGGA
criterion not met
GAAATTAGCC
criterion met
GGGTACGGAT
criterion met
ACGCAGTATG
criterion met
